- METHOD_DESCRIPTION: CHI Log D procedure
- Assay type: physicochemical
- ASSAY_CONTEXT: pH 7.4, CHI Log D
ENDPOINT_LABEL: chromatographic logD
Lab note: write the figure by itself, no unit.

Provide measured chromatographic logD value, entry: CC(=O)N1CCC[C@]12CC=CCCCC1(CCCC=CCCCCCC[C@@](C)(C(=O)N[C@@H](Cc3ccccc3)C(=O)N[C@@H](Cc3csc4ccccc34)C(=O)N[C@@H](CCC(N)=O)C(N)=O)NC(=O)[C@H](CC(N)=O)NC(=O)[C@H](Cc3ccccc3)NC(=O)[C@H](C)NC(=O)[C@H](C)NC(=O)[C@H](CN(CC(=O)O)CC(F)(F)F)NC(=O)[C@H](CC(=O)O)NC1=O)NC(=O)[C@H](CC1CCCCC1)NC(=O)[C@H](CC(=O)O)NC2=O (stereo partly drawn) [I-706]
2.99

State its chromatographic logD: CC(=O)N[C@@H](Cc1ccccc1)C(=O)N[C@@H](CC(=O)O)C(=O)N[C@@H](C)C(=O)N[C@]1(C)CN(C)C(=O)OCC=CCCCCCC[C@@](C)(C(=O)N[C@@H](Cc2ccccc2)C(=O)N[C@@H](Cc2c[nH]c3ccccc23)C(=O)N[C@@H](CCC(N)=O)C(N)=O)NC(=O)[C@H](C(C)C)NC(=O)[C@H](Cc2ccccc2)NC(=O)[C@H](C)NC(=O)[C@H](C)NC(=O)[C@H](CC(=O)O)NC(=O)[C@H](CC(=O)O)NC1=O (single isomer, unassigned) [I-43]
1.31

Report chromatographic logD, nothing else, for this compound: CC[C@H](C)[C@@H]1NC(=O)[C@H](CC(=O)O)NC(=O)[C@]2(CC=CCCCC3(CCCC=CCCCCCC[C@@](C)(C(=O)N[C@@H](Cc4ccccc4)C(=O)N[C@@H](Cc4csc5ccccc45)C(=O)N[C@@H](CCCNC(=N)N)C(N)=O)NC(=O)[C@H](CCC(N)=O)NC(=O)[C@H](Cc4ccccc4)NC(=O)[C@H](C)NC(=O)[C@H](C)NC(=O)[C@H](CCC(=O)O)NC(=O)[C@H](CC(=O)O)NC3=O)NC1=O)CCCN2C(C)=O (stereo partly drawn) [I-633]
2.62
